Where do these numbers come from? They come from PubChem BioAssay (NCI).

# METHOD_NOTES: NCI Yeast Anticancer Drug Screen. Data for the rad50 strain (AID 155)
# EXPERIMENTAL_SETUP: S. cerevisiae rad50 strain growth inhibition; at 5.0 µM (retest, dose inferred, filed as 0.5)
# Procedure: Growth inhibition of yeast strains with defined genetic alterations is measured as a screen for potential anti-cancer activity. Selected strains with alterations in DNA damage repair or cell cycle control were exposed to compounds and growth inhibition was measured relative to vehicle treated controls. The strain used in this assay is rad50
Compounds without any hit were thinned out: in the full panel of roughly 79,000, 15% have a hit. Active and inactive are the calls of the source. No stated cut-off is given here; in the data, active means growth inhibition above about 70%; inactive means the rest.
Hi there, use one of these labels in your reply, thanks! active, inactive

Query :: For O=[N+]([O-])c1ccc(SP(=S)(c2ccccc2)c2ccccc2)c([N+](=O)[O-])c1 , which call appears in the assay record?
Result :: inactive

Query :: I'd appreciate the recorded outcome for O=[N+]([O-])c1ccc(NP(=S)(Nc2ccc([N+](=O)[O-])cc2)c2ccccc2)cc1 from this test.
Result :: inactive

Query :: For this compound, state the assay outcome: O=C([CH-]C(=O)c1ccccc1)c1ccccc1.O=C([CH-]C(=O)c1ccccc1)c1ccccc1.O=C([CH-]C(=O)c1ccccc1)c1ccccc1.[Nd+3].[OH3+]
Result :: inactive

Query :: I'd appreciate the recorded outcome for CCc1c[c]([Hg][Cl])c(CC)c(CC)c1CC from this test.
Result :: inactive

Query :: What classification did CCCCCCC(=O)[O][Hg][c]1ccccc1 end up with in this test?
Result :: active

Query :: Which result was noted for this compound in the test: C[n+]1c(/C=C/c2ccc(O)c3ccccc23)[se]c2ccccc21
Result :: inactive

Query :: Lab log entry: O=C(N/N=C/c1cc(Br)cc(Br)c1[O-])c1ccccc1O.O=C(N/N=C/c1cc(Br)cc(Br)c1[O-])c1ccccc1O.[Co+2] — outcome as called in the assay?
Result :: active

Query :: Look up the recorded call for Oc1c(Cl)c(Cl)cc(Cl)c1Cc1c(Cl)cc(Cl)c(Cl)c1[O][Pb]([c]1ccccc1)([c]1ccccc1)[c]1ccccc1 in this test.
Result :: active

Query :: Would you mind telling me which call this test gave O=[N+]([O-])c1cc[n+]([O-])c2ccccc12 ?
Result :: active

Query :: Hello, I am checking results. What call was entered for CC(=O)O[C@H]1C(=O)O[C@@H]2C[C@H]3C(C)=CC(=O)[C@@H](O)[C@]3(C)[C@H]3[C@@]4(O)OC[C@]32[C@@H]1[C@@H](C)[C@H]4O ?
Result :: inactive

Query :: Test call for this compound, please: O=C(CBr)OCC(Br)CBr (stereo not given)
Result :: active

Query :: For [CH3][Sn]([CH3])([S]CCS(=O)(=O)O)[S]CCS(=O)(=O)O , which call appears in the assay record?
Result :: inactive

Query :: # lookup: test call for Cc1ccc2c(C)c3ccc4ccccc4c3c[n+]2c1
Result :: active

Query :: Query: recorded result category for N#CN(Cc1ccccc1)C(c1ccccc1)(c1ccccc1)c1ccccc1.[I][Sn]([c]1ccccc1)([c]1ccccc1)[c]1ccccc1 in this test
Result :: active

Query :: Dear all, I need the recorded test outcome for CC(=O)NC1C(O[C@H]2CC[C@@]3(C)C(CC[C@]4(C)C3CC=C3C5CC(C)(C)CC[C@]5(C(=O)O)CCC34C)C2(C)C)OC(CO)C(O)C1O (stereo not given in full) , thank you.
Result :: inactive

Query :: Recorded call for Oc1c(Cl)c(Cl)cc(Cl)c1Cl ?
Result :: inactive

Query :: Hi, sorry to bother you, what did the test record for Cc1cc(C)c(C[N+](C)(C)C)c(C)c1C ?
Result :: active

Query :: // return assay outcome for CC1CCCC[N-]1.CC1CCCC[N-]1.N#C[S-].N#C[S-].[Cd] (stereo not given)
Result :: inactive

Query :: Each compound tested received a call. Report the one for CC(=O)[O-].CC(=O)[O-].O=C([CH-]C(=O)c1ccccc1)c1ccccc1.[Nd+3].[OH3+] .
Result :: inactive

Query :: Call for entry N#CC(C#N)=Cc1c(O)ccc2ccccc12 :
Result :: inactive
